target.or.test.system: C-X-C chemokine receptor type 1 (Homo sapiens, UniProt P25024); note: in other assays of this panel Not Active means under 50% inhibition at 10 µM
Sequence (P25024 whole entry): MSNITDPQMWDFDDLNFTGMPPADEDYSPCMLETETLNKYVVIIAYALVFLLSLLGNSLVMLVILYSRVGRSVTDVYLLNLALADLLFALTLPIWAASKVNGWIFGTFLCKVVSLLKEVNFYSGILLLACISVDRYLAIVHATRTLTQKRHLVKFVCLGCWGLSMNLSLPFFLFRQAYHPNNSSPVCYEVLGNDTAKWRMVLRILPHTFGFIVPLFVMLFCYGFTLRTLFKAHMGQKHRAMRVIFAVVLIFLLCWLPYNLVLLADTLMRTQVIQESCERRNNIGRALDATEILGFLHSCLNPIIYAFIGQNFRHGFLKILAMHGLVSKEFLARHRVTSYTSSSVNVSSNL
measured.metric: IC50

Cc1c(C)c2c(c(C)c1O)CCC(C)(CN1CCN(c3cc(N4CCCC4)nc(N4CCCC4)n3)CC1)O2 (stereo not given) = Not Active
C#C[C@]1(OC(C)=O)CC[C@H]2[C@@H]3CCC4=C[C@@H](OC(C)=O)CC[C@@H]4[C@H]3CC[C@@]21C [ETHYNODIOL DIACETATE] = Not Active
Cc1nnc2n1-c1ccc(Cl)cc1C(c1ccccc1)=NC2 [ALPRAZOLAM] = Not Active
O.O.O.O.O.O.[Cl-].[Cl-].[Sr+2] [STRONTIUM CHLORIDE HEXAHYDRATE] = Not Active

We next turn to a different compound, shown below.
Query: // lookup IC50 for Nc1ccn([C@@H]2O[C@H](CO)[C@@H](O)C2(F)F)c(=O)n1 [GEMCITABINE]
Response: Not Active

----------
target.or.test.system: 5-hydroxytryptamine receptor 1A (Rattus norvegicus); note: in other assays of this panel Not Active means under 50% inhibition at 10 µM
Sequence (P19327 whole entry): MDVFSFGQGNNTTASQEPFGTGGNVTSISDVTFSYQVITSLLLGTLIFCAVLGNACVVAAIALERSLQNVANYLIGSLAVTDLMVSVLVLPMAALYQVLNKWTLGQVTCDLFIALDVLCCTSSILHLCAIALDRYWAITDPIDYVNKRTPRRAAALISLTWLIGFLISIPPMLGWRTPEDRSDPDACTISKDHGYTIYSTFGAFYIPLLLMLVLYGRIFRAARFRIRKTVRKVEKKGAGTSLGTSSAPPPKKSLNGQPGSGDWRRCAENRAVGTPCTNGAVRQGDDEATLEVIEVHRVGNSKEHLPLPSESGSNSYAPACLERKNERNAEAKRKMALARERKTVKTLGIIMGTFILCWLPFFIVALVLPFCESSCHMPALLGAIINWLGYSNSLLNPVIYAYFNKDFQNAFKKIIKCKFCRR
Format: cell membranes, CHO-K1, Membrane
measured.metric: pIC50
Please express pIC50 as -log10 of the molar concentration.

Query: Reported pIC50 for COc1ccc(CCN(C)CCCC(C#N)(c2ccc(OC)c(OC)c2)C(C)C)cc1OC (stereo unspecified) : what is it?
Response: 5.52

----------
assay.summary: DRUGMATRIX: Sigma2 radioligand binding (ligand: [3H] Ifenprodil)
Assay type: cell membranes, Rattus norvegicus, Wistar, Brain, Membrane
condition.details: Not Active = under 50% inhibition at 10 µM
measured.metric: Ki

Example compounds with recorded Ki:
Cn1c(=O)c2[nH]cnc2n(C)c1=O.Cn1c(=O)c2[nH]cnc2n(C)c1=O.NCCN = Not Active
Nc1cc(N2CCCCC2)nc(N)[n+]1[O-] = Not Active
CCn1cc(C(=O)O)c(=O)c2cnc(N3CCCC3)nc21 = Not Active
CC(C)c1cccc(C(C)C)c1O = Not Active

As a next step, examine the compound that follows.
Query: Returns the measured Ki for the input compound. Input: Brc1c(NC2=NCCN2)ccc2nccnc12
Response: Not Active

----------
target.or.test.system: Substance-P receptor (Homo sapiens, UniProt P25103); note: in other assays of this panel Not Active means under 50% inhibition at 10 µM
Sequence (P25103 whole entry): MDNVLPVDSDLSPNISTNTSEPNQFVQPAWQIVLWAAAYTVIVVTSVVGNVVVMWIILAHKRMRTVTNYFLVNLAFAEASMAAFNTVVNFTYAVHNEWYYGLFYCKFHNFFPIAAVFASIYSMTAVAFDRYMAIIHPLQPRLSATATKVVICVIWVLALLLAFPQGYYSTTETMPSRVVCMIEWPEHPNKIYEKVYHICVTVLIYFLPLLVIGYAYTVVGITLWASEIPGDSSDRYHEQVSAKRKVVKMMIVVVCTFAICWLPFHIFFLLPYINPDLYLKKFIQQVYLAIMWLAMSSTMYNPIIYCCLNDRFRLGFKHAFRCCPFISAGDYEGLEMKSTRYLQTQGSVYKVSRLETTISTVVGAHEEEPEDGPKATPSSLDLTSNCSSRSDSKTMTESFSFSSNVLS
Assay type: cell membranes, CHO, Membrane
condition.details: cho
measured.metric: IC50

O=C(Oc1ccccc1C(=O)O)c1ccccc1O [SALSALATE] = Not Active
CC(=O)[C@H]1[C@H](C#N)C[C@H]2[C@@H]3CC=C4C[C@@H](O)CC[C@]4(C)[C@H]3CC[C@@]21C = Not Active
CCN(CC)CCNC(=O)c1cc(S(C)(=O)=O)ccc1OC [TIAPRIDE] = Not Active
Oc1cccc(O)c1O = Not Active

--- query ---
Query: So what's the measured IC50 for this one? CNC1(c2ccccc2Cl)CCCCC1=O (stereo not given)
Response: Not Active

----------
target.or.test.system: Melanocortin receptor 5 (Homo sapiens, UniProt P33032); note: in other assays of this panel Not Active means under 50% inhibition at 10 µM
Sequence (P33032 whole entry): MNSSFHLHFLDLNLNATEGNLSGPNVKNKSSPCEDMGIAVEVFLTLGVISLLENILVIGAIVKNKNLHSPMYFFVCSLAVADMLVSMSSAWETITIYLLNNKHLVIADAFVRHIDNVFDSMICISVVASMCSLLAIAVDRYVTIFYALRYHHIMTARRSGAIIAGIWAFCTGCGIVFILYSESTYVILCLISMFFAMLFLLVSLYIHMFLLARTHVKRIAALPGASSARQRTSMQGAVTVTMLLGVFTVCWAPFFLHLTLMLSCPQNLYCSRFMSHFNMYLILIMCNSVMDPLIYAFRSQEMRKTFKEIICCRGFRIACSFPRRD
Type: cell membranes, HEK293, Membrane
condition.details: read-out: IC50
Property: IC50; scope: individual compounds

CC(=O)O[C@H]1C(=O)[C@@]2(C)[C@H]([C@H](OC(=O)c3ccccc3)[C@]3(O)C[C@H](OC(=O)[C@H](O)[C@@H](NC(=O)c4ccccc4)c4ccccc4)C(C)=C1C3(C)C)[C@]1(OC(C)=O)CO[C@@H]1C[C@@H]2O = 17.1 µM
C[C@@H]1CC[C@@]2(OC1)O[C@H]1[C@@H](O)[C@H]3[C@@H]4CC[C@H]5C[C@@H](O[C@@H]6O[C@H](CO)[C@H](O[C@@H]7O[C@H](CO)C(O)[C@H](O[C@@H]8OC[C@@H](O)[C@H](O)[C@H]8O)[C@H]7O[C@@H]7O[C@H](CO)[C@H](O)[C@H](O[C@@H]8O[C@H](CO)[C@@H](O)[C@H](O)[C@H]8O)[C@H]7O)[C@H](O)[C@H]6O)[C@H](O)C[C@]5(C)[C@H]4CC[C@]3(C)[C@H]1[C@@H]2C (some centres undefined) = 3.88 µM
CN[C@H]1CC[C@@H](c2ccc(Cl)c(Cl)c2)c2ccccc21 = 4.6 µM

Query: Which IC50 reading was recorded for the compound Clc1ccc(COC(Cn2ccnc2)c2ccc(Cl)cc2Cl)cc1 (centres undefined) ?
Response: 39.5 µM

Source of measurements: ChEMBL document CHEMBL1909046
